- assay remarks: Intrinsic clearance in mouse liver microsome
- Assay type: ADME
- test conditions: liver microsomes
measurement name: microsomal CLint (µL/min/mg)

a. C[C@H](NC(=O)c1snnc1C1CC1)c1c(F)cccc1Cl
b. Cc1ccccc1C(=O)NCc1c(F)cccc1Cl
## Task Sorting by microsomal CLint in descending order, would a or b appear first? Refer to your chosen item by its label in the answer.
## Result a

====

- assay remarks: Metabolic stability assessed as half life in mouse liver microsomes
- Format: ADME, Microsome
measurement name: half-life (min)

a. C[C@H](NC(=O)c1snnc1C1CC1)c1c(F)cccc1Cl
b. Cc1ccccc1C(=O)NCc1c(F)cccc1Cl
## Task When the recorded half-life values are compared, which is smaller: that of a or that of b ? Write the label of whichever entry you select.
## Result a
(a: 32.5 min, b: 194 min)
